# target.entity: histamine H3 receptor (Homo sapiens, UniProt Q9Y5N1)
# Construct: expressed in transfected cells; host or cells: CHO K1 cells with pSwitch/pGeneH3 (GeneSwitch, mifepristone-induced), clone 3H3; membrane preparation
# Sequence (Q9Y5N1 whole entry, species assumed): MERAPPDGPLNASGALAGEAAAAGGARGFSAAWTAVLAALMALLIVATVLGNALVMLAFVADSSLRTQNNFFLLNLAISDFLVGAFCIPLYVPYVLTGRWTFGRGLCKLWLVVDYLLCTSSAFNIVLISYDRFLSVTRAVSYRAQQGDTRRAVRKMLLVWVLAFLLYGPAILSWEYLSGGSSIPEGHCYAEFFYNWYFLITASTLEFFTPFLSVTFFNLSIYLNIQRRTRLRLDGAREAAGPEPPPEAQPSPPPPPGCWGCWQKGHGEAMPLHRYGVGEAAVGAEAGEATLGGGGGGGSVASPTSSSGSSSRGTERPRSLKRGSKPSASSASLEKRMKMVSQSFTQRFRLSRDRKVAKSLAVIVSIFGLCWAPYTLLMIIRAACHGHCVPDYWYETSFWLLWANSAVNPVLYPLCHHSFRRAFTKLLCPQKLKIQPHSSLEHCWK
# protocol.description: Histamine H3 functional antagonist assay (GTPγS, membranes)
# Format: biochemical
# conditions.used: CHO K1 membranes, [35S]-GTPγS, histamine at EC80; read-out: average pKi (pKb) at H3 (converted)
I'd appreciate it if you could supply Ki values for the items below.

Need Ki of CCCCc1cc(OC2CCN(CC3CCCNC3=O)CC2)c2ncccc2c1 (centres unmarked) [Example 5] , thanks.
> 0.316 µM

Fill in: Ki of CCCCc1cc(OC2CCN(CCNC(=O)CCC)CC2)c2ncccc2c1 [Example 74] is ___
> 0.316 µM

What value of measured Ki is listed for CCCCc1cc(OC2CCN(CCCCC(=O)NCCCOC)CC2)c2ncccc2c1 [Example 26] ?
> 3.16 µM

Query: Ki; subject: CCCCc1cc(OC2CCN(CCCCNC(=O)CCCOC)CC2)c2ncccc2c1 [Example 84]
> 0.316 µM

Any idea what Ki was measured for CCCCc1cc(OC2CCN(C[C@H]3CC[C@H](C(=O)N(CC)CC)CC3)CC2)c2ncccc2c1 [Example 43] ?
> 0.316 µM

* * *

# target.entity: histamine H3 receptor (Homo sapiens, UniProt Q9Y5N1)
# Construct: expressed in transfected cells; host or cells: CHO K1 cells with pSwitch/pGeneH3 (GeneSwitch, mifepristone-induced), clone 3H3; membrane preparation
# protocol.description: Histamine H3 functional antagonist assay (GTPγS, membranes)
# Format: biochemical
# conditions.used: CHO K1 membranes, [35S]-GTPγS, histamine at EC80; read-out: average pKi (pKb) at H3 (converted)
Provide the recorded Ki for the entries that follow.

Which Ki is listed for "CCCCc1cc(OC2CCN(CCC3CCN(C(=O)CC)CC3)CC2)c2ncccc2c1" ?
> 316 nM

Give its Ki value. Item: "CCCCc1cc(OC2CCN(CCCCC(=O)N(CC)CC)CC2)c2ncccc2c1"
> 3160 nM

Which measured Ki value corresponds to "CCCCc1cc(OC2CCN(CCNC(=O)C(C)(C)C)CC2)c2ncccc2c1" ?
> 316 nM

# query: Ki of entry "CCCCc1cc(OC2CCN(CCCNC(=O)CCCOC)CC2)c2ncccc2c1"
> 316 nM

// query Ki value for entry "CCCCc1cc(OC2CCN(CCC(=O)NC(C)(C)C)CC2)c2ncccc2c1"
> 3160 nM

* * *

# target.entity: human H1 receptor (Homo sapiens, UniProt P35367)
# Construct: expressed in transfected cells
# Sequence (P35367 whole entry): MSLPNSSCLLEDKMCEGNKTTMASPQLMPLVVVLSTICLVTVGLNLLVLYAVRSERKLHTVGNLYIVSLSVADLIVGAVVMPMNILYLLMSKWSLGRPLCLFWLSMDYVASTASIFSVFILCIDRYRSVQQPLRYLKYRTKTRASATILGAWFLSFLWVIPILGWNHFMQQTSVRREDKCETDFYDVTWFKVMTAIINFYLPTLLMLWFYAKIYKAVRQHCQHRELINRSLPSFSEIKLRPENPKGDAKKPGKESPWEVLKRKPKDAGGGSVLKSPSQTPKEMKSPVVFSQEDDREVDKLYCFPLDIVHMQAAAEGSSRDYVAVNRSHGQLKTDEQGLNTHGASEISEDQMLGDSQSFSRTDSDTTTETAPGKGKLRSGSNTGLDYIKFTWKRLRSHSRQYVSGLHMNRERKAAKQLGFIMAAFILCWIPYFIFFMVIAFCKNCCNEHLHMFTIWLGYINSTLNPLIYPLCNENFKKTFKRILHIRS
# protocol.description: Histamine H1 functional antagonist assay: determination of functional pKi values (FLIPR)
# Format: cell-based
# conditions.used: CHO cells expressing human H1 receptor, histamine at EC80, read-out: average pKi (pKb) at H1 (converted)
# Method: The human H1 receptor is cloned using known procedures described in the literature [Biochem. Biophys. Res. Commun., 201(2):894 (1994)]. […] Functional antagonism is indicated by a suppression of histamine induced increase in fluorescence, as measured by the FLIPR™ system (Molecular Devices). By means of concentration effect curves, functional affinities are determined using standard pharmacological mathematical analysis.
measurement.label: Ki

Short answer please: Ki, human H1 receptor (Homo sapiens, UniProt P35367), entry "CCCCc1cc(OC2CCN(CCCNC(=O)CCOC)CC2)c2ncccc2c1"
< 10 nM

Give human H1 receptor (Homo sapiens, UniProt P35367) Ki for "CCCCc1cc(OC2CCN(C[C@H]3CC[C@H](C(=O)NCCC)CC3)CC2)c2ncccc2c1"
< 10 nM

// lookup Ki | system=human H1 receptor (Homo sapiens, UniProt P35367) | key= "CCCCc1cc(OC2CCN(CCCNC(=O)CCCOC)CC2)c2ncccc2c1"
< 100 nM

Field: Ki (human H1 receptor (Homo sapiens, UniProt P35367)). Entry: "CCCCc1cc(OC2CCN(CCCc3nc(CCC)no3)CC2)c2ncccc2c1"
< 10 nM

Hello, I am looking for reported Ki with human H1 receptor (Homo sapiens, UniProt P35367) for "CCCCc1cc(OC2CCN(CCCNC(=O)C(C)(C)C)CC2)c2ncccc2c1" . Could you help?
< 10 nM

Query for human H1 receptor (Homo sapiens, UniProt P35367): what Ki does the record show for "CCCCCCc1cc(OC2CCN(C[C@H]3CC[C@H](C(=O)NCCCOC)CC3)CC2)c2ncccc2c1" ?
< 100 nM

Form entry - test system: human H1 receptor (Homo sapiens, UniProt P35367); read-out: Ki; molecule: "CCCCc1cc(O[C@H]2CCN(CCCC(=O)NC(C)(C)C)C2)c2ncccc2c1"
< 100 nM

What Ki appears in the records for this molecule with human H1 receptor (Homo sapiens, UniProt P35367)? "CCCCc1cc(OC2CCN(CCC(=O)NC(C)(C)C)CC2)c2ncccc2c1"
< 10 nM

Provide value of Ki for this record tested with human H1 receptor (Homo sapiens, UniProt P35367): "CCCCc1cc(OC2CCN(CCCCC(=O)NC(C)(C)C)CC2)c2ncccc2c1"
< 100 nM

Identify the measured Ki of "CCCCc1cc(O[C@H]2CCN(CCCC(=O)N3CCCCC3)C2)c2ncccc2c1" for human H1 receptor (Homo sapiens, UniProt P35367).
< 10 nM

Please tell me: Ki of "CCCCCc1cc(OC2CCN(CCCNC(=O)C(C)(C)C)CC2)c2ncccc2c1" , system human H1 receptor (Homo sapiens, UniProt P35367)?
< 10 nM

Find the measured Ki: item "CCCCCc1cc(OC2CCN(CCCNC(=O)CC)CC2)c2ncccc2c1" , target or system human H1 receptor (Homo sapiens, UniProt P35367).
< 10 nM

Param readout= Ki; system= human H1 receptor (Homo sapiens, UniProt P35367); entry= "CCCCc1cc(OC2CCN(CCCCNC(=O)C(C)(C)C)CC2)c2ncccc2c1" ; returns value.
< 10 nM

Any idea what Ki came out for "CCCCc1cc(OC2CCN(CC(=O)N(CC)CC)CC2)c2ncccc2c1" on human H1 receptor (Homo sapiens, UniProt P35367)?
< 100 nM

Provide value of Ki for this record tested with human H1 receptor (Homo sapiens, UniProt P35367): "CCCCc1cc(OC2CCN(CCCC(=O)NC(C)C)CC2)c2ncccc2c1"
< 10 nM

Hello, I am looking for reported Ki with human H1 receptor (Homo sapiens, UniProt P35367) for "CCCCc1cc(OC2CCN(C[C@H]3CC[C@H](C(=O)NCc4ccc(C)cc4)CC3)CC2)c2ncccc2c1" . Could you help?
< 100 nM

# returns recorded Ki (system: human H1 receptor (Homo sapiens, UniProt P35367)) for "CCCCCCc1cc(OC2CCN(C[C@H]3CC[C@H](C(=O)N4CCCCC4)CC3)CC2)c2ncccc2c1"
< 100 nM
